- System: 653999-131-R-J2-PDC complex spheroids, growth % test/control
- method: Anticancer human tumor 653999-131-R-J2-PDC patient-derived lung adenocarcinoma cell line growth inhibition [AhR]
- assayContext: second compound 1 µM; first compound 0.000316 µM; stronger effect = lower value
Parameter viability, T/C: see the listing below.

{"columns": ["molecule", "viability, T/C"],
 "data": [
  ["CC[C@@]1(O)C(=O)OCc2c1cc1n(c2=O)Cc2cc3c(CN(C)C)c(O)ccc3nc2-1 + Cc1ccccc1N=Nc1ccc(NC(=O)c2ccnn2C)c(C)c1", "101%"],
  ["Cn1ncnc1C1c2n[nH]c(=O)c3cc(F)cc(c23)NC1c1ccc(F)cc1 (stereo not drawn) + Cc1cncc(-c2nc(NCCc3c[nH]c4ccccc34)c3ncn(C(C)C)c3n2)c1", "104%"],
  ["CC[C@@]1(O)C(=O)OCc2c1cc1n(c2=O)Cc2cc3c(CN(C)C)c(O)ccc3nc2-1 + Cc1cncc(-c2nc(NCCc3c[nH]c4ccccc34)c3ncn(C(C)C)c3n2)c1", "106%"]
]}

* * *

Parameter viability, T/C: see the listing below.
- Tested on: 653999-131-R-J2-PDC complex spheroids, growth % test/control
- method: Anticancer human tumor 653999-131-R-J2-PDC cell line growth inhibition [AhR];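 further: spheroids exposed to agents for seven days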;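 on viability, T/C: 100% = DMSO vehicle control viability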
- assayContext: second compound 10 µM; first compound 0.001 µM; stronger effect = lower value

{"columns": ["molecule", "targetOrSystem", "endpointUnit", "viability, T/C"],
 "data": [
  ["CC[C@@]1(O)C(=O)OCc2c1cc1n(c2=O)Cc2cc3c(CN(C)C)c(O)ccc3nc2-1 + Cc1cncc(-c2nc(NCCc3c[nH]c4ccccc34)c3ncn(C(C)C)c3n2)c1", "653999-131-R-J2-PDC complex spheroids, growth % test/control", "%", 64.4],
  ["CC[C@@]1(O)C(=O)OCc2c1cc1n(c2=O)Cc2cc3c(CN(C)C)c(O)ccc3nc2-1 + CC(CO)NC(=O)c1cc(-c2ccc(Cl)cc2)nn(-c2cnn(C)c2)c1=O", "653999-131-R-J2-PDC complex spheroids, growth % test/control", "%", 95.3],
  ["CC[C@@]1(O)C(=O)OCc2c1cc1n(c2=O)Cc2cc3c(CN(C)C)c(O)ccc3nc2-1 + Cc1ccccc1N=Nc1ccc(NC(=O)c2ccnn2C)c(C)c1", "653999-131-R-J2-PDC complex spheroids, growth % test/control", "%", 106],
  ["Cn1ncnc1C1c2n[nH]c(=O)c3cc(F)cc(c23)NC1c1ccc(F)cc1 (stereo unspecified) + Cc1ccccc1N=Nc1ccc(NC(=O)c2ccnn2C)c(C)c1", "653999-131-R-J2-PDC complex spheroids, growth % test/control", "%", 104],
  ["Cn1ncnc1C1c2n[nH]c(=O)c3cc(F)cc(c23)NC1c1ccc(F)cc1 (stereo unspecified) + Cc1cncc(-c2nc(NCCc3c[nH]c4ccccc34)c3ncn(C(C)C)c3n2)c1", "653999-131-R-J2-PDC complex spheroids, growth % test/control", "%", 55.5],
  ["Cn1ncnc1C1c2n[nH]c(=O)c3cc(F)cc(c23)NC1c1ccc(F)cc1 (stereo unspecified) + CC(CO)NC(=O)c1cc(-c2ccc(Cl)cc2)nn(-c2cnn(C)c2)c1=O", "653999-131-R-J2-PDC complex spheroids, growth % test/control", "%", 105]
]}

* * *

Parameter IC50: see the listing below.
- Tested on: 653999-131-R-J2-PDC complex spheroids, growth % test/control
- method: Anticancer human tumor 653999-131-R-J2-PDC cell line growth inhibition [AhR];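 further: spheroids exposed to agents for seven days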
- assayContext: curve of first compound; second compound 0.1 µM
propertyName: IC50

{"columns": ["molecule", "propertyName", "resultValue"],
 "data": [
  ["CC(C)CC(NC(=O)C(Cc1ccccc1)NC(=O)c1cnccn1)B(O)O (stereo unspecified) + Cc1cncc(-c2nc(NCCc3c[nH]c4ccccc34)c3ncn(C(C)C)c3n2)c1", "IC50", "0.0223 µM"],
  ["COc1ccc([C@@H](O)c2cc(-c3ncnc4cc(N5CCOCC5)ccc34)c(F)cc2Cl)nn1 + Cc1cncc(-c2nc(NCCc3c[nH]c4ccccc34)c3ncn(C(C)C)c3n2)c1", "IC50", "8.89 µM"],
  ["O=C(C=Cn1cnc(-c2cc(C(F)(F)F)cc(C(F)(F)F)c2)n1)NNc1cnccn1 + Cc1cncc(-c2nc(NCCc3c[nH]c4ccccc34)c3ncn(C(C)C)c3n2)c1", "IC50", "0.233 µM"],
  ["COc1ccc([C@@H](O)c2cc(-c3ncnc4cc(N5CCOCC5)ccc34)c(F)cc2Cl)nn1 + Cc1ccccc1N=Nc1ccc(NC(=O)c2ccnn2C)c(C)c1", "IC50", "9.88 µM"],
  ["O=C(c1cc(Cc2n[nH]c(=O)c3ccccc23)ccc1F)N1CCN(C(=O)C2CC2)CC1 + CC(CO)NC(=O)c1cc(-c2ccc(Cl)cc2)nn(-c2cnn(C)c2)c1=O", "IC50", "> 10 µM"],
  ["CCN(c1cc(-c2ccc(CN3CCOCC3)cc2)cc(C(=O)NCc2c(C)cc(C)[nH]c2=O)c1C)C1CCOCC1 + Cc1cncc(-c2nc(NCCc3c[nH]c4ccccc34)c3ncn(C(C)C)c3n2)c1", "IC50", "> 3 µM"]
]}

* * *

- Test system: 653999-131-R-J2-PDC complex spheroids, growth % test/control
- method: Anticancer human tumor 653999-131-R-J2-PDC cell line growth inhibition [AhR];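 further: spheroids exposed to agents for seven days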;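 on viability, T/C: 100% = DMSO vehicle control viability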
- assayContext: second compound 3.16 µM; first compound 1 µM; stronger effect = lower value
Parameter viability, T/C: see the listing below.
propertyName: viability, T/C (%)

{"columns": ["molecule", "targetOrSystem", "resultValue"],
 "data": [
  ["NS(=O)(=O)OCC1CC(n2ccc3c(NC4CCc5ccccc54)ncnc32)CC1O (stereo not drawn) + CC(CO)NC(=O)c1cc(-c2ccc(Cl)cc2)nn(-c2cnn(C)c2)c1=O", "653999-131-R-J2-PDC complex spheroids, growth % test/control", 54.5],
  ["COc1cccc2c1C(=O)c1c(O)c3c(c(O)c1C2=O)CC(O)(C(=O)CO)CC3OC1CC(N)C(O)C(C)O1 (stereo not drawn) + Cc1ccccc1N=Nc1ccc(NC(=O)c2ccnn2C)c(C)c1", "653999-131-R-J2-PDC complex spheroids, growth % test/control", 12.3],
  ["CC1COCCN1c1cc(-c2ccnn2C)c2ccnc(-c3ccn[nH]3)c2n1 (stereo not drawn) + Cc1ccccc1N=Nc1ccc(NC(=O)c2ccnn2C)c(C)c1", "653999-131-R-J2-PDC complex spheroids, growth % test/control", 35.1]
]}

* * *

Parameter viability, T/C: see the listing below.
- Tested on: 653999-131-R-J2-PDC complex spheroids, growth % test/control
- method: Anticancer human tumor 653999-131-R-J2-PDC cell line growth inhibition [AhR];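 further: spheroids exposed to agents for seven days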;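 on viability, T/C: 100% = DMSO vehicle control viability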
- assayContext: second compound 10 µM; first compound 3.16 µM; stronger effect = lower value

{"columns": ["compound", "endpointUnit", "viability, T/C"],
 "data": [
  ["CC(C)c1c(-c2ccccc2)nc2c(C#N)c[nH]n2c1=O + Cc1ccccc1N=Nc1ccc(NC(=O)c2ccnn2C)c(C)c1", "%", 107],
  ["COc1ccc([C@@H](O)c2cc(-c3ncnc4cc(N5CCOCC5)ccc34)c(F)cc2Cl)nn1 + Cc1cncc(-c2nc(NCCc3c[nH]c4ccccc34)c3ncn(C(C)C)c3n2)c1", "%", 66.3],
  ["CC1COCCN1c1cc(C2(S(C)(=N)=O)CC2)nc(-c2ccnc3[nH]ccc23)n1 (configuration not stated) + Cc1cncc(-c2nc(NCCc3c[nH]c4ccccc34)c3ncn(C(C)C)c3n2)c1", "%", 49.6],
  ["CC1(C)CCC(CN2CCN(c3ccc(C(=O)NS(=O)(=O)c4ccc(NCC5CCOCC5)c([N+](=O)[O-])c4)c(Oc4cnc5[nH]ccc5c4)c3)CC2)=C(c2ccc(Cl)cc2)C1 + CC(CO)NC(=O)c1cc(-c2ccc(Cl)cc2)nn(-c2cnn(C)c2)c1=O", "%", 92.5],
  ["O=C(C=Cc1cccc(S(=O)(=O)Nc2ccccc2)c1)NO + CC(CO)NC(=O)c1cc(-c2ccc(Cl)cc2)nn(-c2cnn(C)c2)c1=O", "%", 56.2],
  ["Nc1ccccc1NC(=O)c1ccc(CNC(=O)OCc2cccnc2)cc1 + Cc1ccccc1N=Nc1ccc(NC(=O)c2ccnn2C)c(C)c1", "%", 63.1],
  ["CC(C)c1c(-c2ccccc2)nc2c(C#N)c[nH]n2c1=O + CC(CO)NC(=O)c1cc(-c2ccc(Cl)cc2)nn(-c2cnn(C)c2)c1=O", "%", 95.4],
  ["O=C(c1cc(Cc2n[nH]c(=O)c3ccccc23)ccc1F)N1CCN(C(=O)C2CC2)CC1 + Cc1cncc(-c2nc(NCCc3c[nH]c4ccccc34)c3ncn(C(C)C)c3n2)c1", "%", 49.3],
  ["COc1cc(Nc2ncc3c(n2)-c2ccc(Cl)cc2C(c2c(F)cccc2OC)=NC3)ccc1C(=O)O + Cc1ccccc1N=Nc1ccc(NC(=O)c2ccnn2C)c(C)c1", "%", 56.5],
  ["COc1ccc([C@@H](O)c2cc(-c3ncnc4cc(N5CCOCC5)ccc34)c(F)cc2Cl)nn1 + Cc1ccccc1N=Nc1ccc(NC(=O)c2ccnn2C)c(C)c1", "%", 70.9],
  ["Nc1ccn(C2OC(CO)C(O)C2(F)F)c(=O)n1 (configuration not stated) + Cc1cncc(-c2nc(NCCc3c[nH]c4ccccc34)c3ncn(C(C)C)c3n2)c1", "%", 33.3],
  ["O=C(C=Cc1cccc(S(=O)(=O)Nc2ccccc2)c1)NO + Cc1cncc(-c2nc(NCCc3c[nH]c4ccccc34)c3ncn(C(C)C)c3n2)c1", "%", 46.9]
]}
